target: HSP90a protein (Homo sapiens); construct: purchased BPS Bioscience 50298; assay: HSP90α-binding fluorescent polarization (FP) assay, BODIPY-labeled RNK04010 probe; settings: FP competition with RNK04010 (BODIPY-labeled), 5 nM, 300 min at 25° C.
For each of the compounds below, state its IC50.

Field: example entries. Status: answers known.
| Compound Smiles | IC50 |
| --- | --- |
| C=CC(=O)N1CCN(c2nc(NCCC(=O)NCCc3ccc(-n4c(O)nnc4-c4cc(C(C)C)c(O)cc4O)cc3)nc3c2CCN(c2cccc4ccccc24)C3)C[C@H]1CC#N | 0.1 to 1 µM |
| C=CC(=O)N1CCN(c2nc(OC[C@@H]3C[C@H](C(=O)N4CCN(Cc5ccc(-n6c(C(=O)NCC(F)(F)F)nnc6-c6cc(C(C)C)c(O)cc6O)cc5)CC4)CN3C)nc3c2CCN(c2cccc4cccc(Cl)c24)C3)C[C@@H]1CC#N | < 0.1 µM |
| C=CC(=O)N1CCN(c2nc(NCCC(=O)NCCOCCOCCN[C@@H](C)C(=O)N[C@H](C(=O)N3CCC[C@H]3C(=O)Nc3snnc3-c3ccccc3)C3CCCCC3)nc3c2CCN(c2cc(O)cc4ccccc24)C3)CC1 | > 1 µM |

Attention now turns to another entry.
The reported IC50 of the compound `CCC(=O)N1CCN(c2nc(NCCC(=O)NCc3ccc(-n4c(O)nnc4-c4cc(C(C)C)c(O)cc4O)cc3F)nc3c2CCN(c2cc(O)cc4ccccc24)C3)CC1` was 0.1 to 1 µM
